Taken from ChEMBL document CHEMBL1130145.

# experiment_summary: In vitro anti-HIV activity in peripheral blood mononuclear cells.
# Type: functional
assay_readout: EC50 (nM)
Only the number, expressed in nM, is required.

Observe how each entry below is paired with its result.
Return reported EC50; argument: `Nc1ccn([C@H]2C[Se][C@@H](CO)O2)c(=O)n1`
880

Return reported EC50; argument: Nc1ccn([C@@H]2CSC(CO)O2)c(=O)n1 (single isomer, unassigned)
70

Return reported EC50; argument: `Nc1nc(=O)n([C@H]2C[Se][C@@H](CO)O2)cc1F`
510

# context switch: different compound, same EC50
Return reported EC50; argument: `Nc1ccn([C@@H]2C[Se][C@@H](CO)O2)c(=O)n1`
2400
